assay: Clinical investigations: half life in blood and relative bioavailability; assay type: in vivo, human; conditions: human, blood, composition according to the invention; read-out: half life measured in the blood (converted)
Where a name gives a salt, the structure may show the parent alone.
Readout: half-life (h)

[[record]]
compound = "Cc1cccc(C)c1NNC(=N)N(C)C [hydrochloride]"
recorded_value = 3.2


* * *

assay: Clinical investigations: half life in blood and relative bioavailability; assay type: in vivo, human; settings: human, blood, injectable composition containing the same active ingredient; read-out: half life measured in the blood (converted)
Counter-ions that a name gives are not always drawn.
Readout: half-life (h)

[[record]]
compound = "Cc1cccc(C)c1NNC(=N)N(C)C [hydrochloride]"
readout_units = "h"
recorded_value = 2.4

